Reference source for all entries: PubChem BioAssay (NCI)

experiment: NCI Yeast Anticancer Drug Screen. Data for the sgs1 mgt1 strain (AID 161); details: S. cerevisiae sgs1 mgt1 strain, at 50.0 µM
About 79,000 compounds went through this panel and 15% of them were active in at least one assay; those are over-represented in the sample as a whole. The source made the active and inactive calls. No stated cut-off is given here; in the data, active means growth inhibition above about 70%; inactive means the rest.
Please reply with one of these outcomes: YES = active, NO = inactive

Problem: Can you look up the reported call for CCCCCCCCN1COC2CCc3ccccc3C21 (centres undefined) for me?
Result: YES

Problem: Would you mind doing CN(C)CCC(O)c1ccccc1 (centres undefined) as well?
Result: NO

Problem: Would you mind doing Nc1nnc(CCC(=O)Nc2cccc(C(F)(F)F)c2)n1N as well?
Result: NO

Problem: Would you mind doing Nc1cc(NC(=O)CO)cc(C(=O)O)c1 as well?
Result: NO

Problem: Would you mind doing C1CSC(Sc2nc(SC3=NCCS3)nc(SC3=NCCS3)n2)=N1 as well?
Result: NO

Problem: Would you mind doing COc1ccc(CC2(Cc3ccc(OC)cc3)CCOC2=O)cc1 as well?
Result: NO

Problem: Would you mind doing CCCCCC(=O)/C=C/CC(CCCCCCC#N)C(CC(OC)OC)[N+](=O)[O-] (centres undefined) as well?
Result: NO

Problem: Would you mind doing O=C1CCc2c(Cl)sc(Cl)c21 as well?
Result: NO

Problem: Would you mind doing COc1ccc(NC(=O)C2=C(SC)C(C#N)C(=O)N=C2N)cc1 (centres undefined) as well?
Result: NO

Problem: Would you mind doing O=C([O-])c1ccc2c(c1)-c1nc-2nc2[n-]c(nc3nc(nc4[n-]c(n1)c1ccc(C(=O)[O-])cc41)-c1ccc(C(=O)[O-])cc1-3)c1ccc(C(=O)[O-])cc21.[Gd+3].[K+] as well?
Result: NO

Problem: Would you mind doing BrC1(Br)C2CC/C=C/CCCCC21 (centres undefined) as well?
Result: NO

Problem: Would you mind doing [Cl][Pt+2][Cl].[NH-]c1ccc(CC(=O)O)cc1[NH-] as well?
Result: NO

Problem: Would you mind doing O=C1CC2C3CC4(OCCO4)C4C3CC2C14 (centres undefined) as well?
Result: NO

Problem: Would you mind doing O=C(Nc1ccc(NC(=O)OCc2ccccc2)c(Cl)c1)OCc1ccccc1 as well?
Result: NO

Problem: Would you mind doing Clc1cc(Br)c2c(Cl)ccnc2c1Br as well?
Result: NO

Problem: Would you mind doing Cc1cc2c(c(=O)o1)C(C)CC(c1c(O)cc(C)oc1=O)O2 (centres undefined) as well?
Result: NO

Problem: Would you mind doing CC1OC2CC(O)C1(O)C1=C2C(O)=C(C(N)=O)C(=N)C1=O (centres undefined) as well?
Result: NO

Problem: Would you mind doing C[C@@]12CCC[C@H]1[C@@H]1CC=C3C[C@@H](S)CC[C@]3(C)[C@H]1CC2 as well?
Result: NO

Problem: Would you mind doing CCNCc1ccccc1 as well?
Result: NO

Problem: Would you mind doing COc1cc(O)c(O)cc1C(C)(C)C as well?
Result: NO

Problem: Would you mind doing CCCCCCCCCSc1nc2ccccc2s1 as well?
Result: NO

Problem: Would you mind doing Nc1ccc(C(=O)Nc2ccc3c(ccc4ccccc43)c2)cc1 as well?
Result: NO

Problem: Would you mind doing OC(CCl)(CCl)CCl as well?
Result: NO

Problem: Would you mind doing COc1ccc(/C=C/c2cc(O)cc(OC3OC(CO)C(O)C(O)C3O)c2)cc1O (centres undefined) as well?
Result: NO
